Quick reference for pEC50 among some molecules
- subject-of-test: human TLR7 (Homo sapiens)
- Construct: host or cells: HEK-Blue TLR7 cells (engineered human embryonic kidney cells)
- Sequence (Q9NYK1 27-1049): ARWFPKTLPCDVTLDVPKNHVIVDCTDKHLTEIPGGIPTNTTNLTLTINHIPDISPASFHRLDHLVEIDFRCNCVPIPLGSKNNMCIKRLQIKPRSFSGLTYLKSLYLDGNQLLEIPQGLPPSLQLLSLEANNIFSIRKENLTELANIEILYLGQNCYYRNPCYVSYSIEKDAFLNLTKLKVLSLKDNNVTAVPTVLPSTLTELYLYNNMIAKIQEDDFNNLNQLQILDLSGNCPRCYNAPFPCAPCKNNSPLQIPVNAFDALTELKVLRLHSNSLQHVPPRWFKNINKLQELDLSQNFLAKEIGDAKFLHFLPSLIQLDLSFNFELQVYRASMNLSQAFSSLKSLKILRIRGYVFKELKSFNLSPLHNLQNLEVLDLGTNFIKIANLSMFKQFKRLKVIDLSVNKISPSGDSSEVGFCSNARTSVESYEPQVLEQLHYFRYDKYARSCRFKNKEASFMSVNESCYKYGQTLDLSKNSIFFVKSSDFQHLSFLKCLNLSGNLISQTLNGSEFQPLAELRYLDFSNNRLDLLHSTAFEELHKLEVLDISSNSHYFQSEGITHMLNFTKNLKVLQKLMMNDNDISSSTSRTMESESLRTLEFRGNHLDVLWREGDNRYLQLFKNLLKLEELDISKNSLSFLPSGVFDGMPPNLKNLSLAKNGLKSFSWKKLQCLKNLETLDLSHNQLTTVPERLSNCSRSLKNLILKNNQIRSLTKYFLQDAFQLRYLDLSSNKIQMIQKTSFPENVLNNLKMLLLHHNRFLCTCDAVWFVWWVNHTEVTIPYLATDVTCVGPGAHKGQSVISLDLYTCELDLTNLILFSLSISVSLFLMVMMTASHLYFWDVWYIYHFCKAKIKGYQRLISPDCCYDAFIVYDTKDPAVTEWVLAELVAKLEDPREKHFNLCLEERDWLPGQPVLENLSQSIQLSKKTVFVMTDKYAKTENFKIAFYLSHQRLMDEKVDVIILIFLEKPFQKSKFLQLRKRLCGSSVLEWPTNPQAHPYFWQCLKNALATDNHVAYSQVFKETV
- test-method-notes: Human TLR7 agonist activity assay (HEK-Blue TLR7 SEAP reporter)
- Type: cell-based
- condition-summary: HEK-Blue TLR7 cells, 18 h treatment, average where assay performed multiple times, read-out: hTLR7 Agonism EC50
Friendly reminder that pEC50 comes from taking -log10 of the concentration in mol/L.

For orientation, consider the following solved cases.
[
  {
    "molecule": "CCC[C@@H](CCO)Nc1nc(N)nc2cnn(Cc3nnc(C4CCN(C(C)C)CC4)cc3OC)c12 [Compound 177]",
    "subject-of-test": "human TLR7 (Homo sapiens)",
    "measurement-name": "pEC50",
    "test-value": 6.24
  },
  {
    "molecule": "CCCCNc1nc(N)nc2cnn(Cc3ncc(C4CCN(C)CC4)cc3OC)c12 [Compound 111]",
    "subject-of-test": "human TLR7 (Homo sapiens)",
    "measurement-name": "pEC50",
    "test-value": 7.19
  },
  {
    "molecule": "COc1cc(C2CCN(C(=O)CCN(C)C)CC2)cnc1Cn1ncc2nc(N)nc(NCc3cc(C)on3)c21 [Compound 140]",
    "subject-of-test": "human TLR7 (Homo sapiens)",
    "measurement-name": "pEC50",
    "test-value": 6.28
  },
  {
    "molecule": "CCC[C@@H](CCO)Nc1nc(N)nc2cnn(Cc3cnc(C4CCN(CCO)CC4)cc3OC)c12 [Compound 173]",
    "subject-of-test": "human TLR7 (Homo sapiens)",
    "measurement-name": "pEC50",
    "test-value": 7.05
  },
  {
    "molecule": "CCC[C@@H](CCO)Nc1nc(N)nc2cnn(Cc3ncc(C4CCN(Cc5ncco5)CC4)cc3OC)c12 [Compound 207]",
    "subject-of-test": "human TLR7 (Homo sapiens)",
    "measurement-name": "pEC50",
    "test-value": 7.60
  },
  {
    "molecule": "CCCCNc1nc(N)nc2cnn(Cc3cc(F)c(N4CCN(C(=O)CN5CCC[C@H]5CO)CC4)cc3OC)c12 [Compound 198]",
    "subject-of-test": "human TLR7 (Homo sapiens)",
    "measurement-name": "pEC50",
    "test-value": 7.32
  }
]

# ---- query molecule ----
Ask | Any idea what pEC50 was measured for CCC[C@@H](CCO)Nc1nc(N)nc2cnn(Cc3ncc(C4CCN(C(C)C)CC4)cc3OC)c12 [Compound 126] ?
Reply | 7.81
